- System: MAP3K4
- Test context: concentration: 1 μM,replicates: in singlicate; n = 1;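 further: KINOMEscan kinase panel screen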
Documented %Inh across a set of compounds
Note: unit % is implicit; provide only the numeric part.

# count of solved cases: 6
CC(=O)Nc1nc2cnc(Nc3cc(NC(=O)c4cccc(CC(C)(C)C#N)c4)ccc3C)nc2s1 = 0
COc1cc(Nc2nccc(N3CCC(NC(=O)c4cccc(C#N)c4)C3)n2)cc(OC)c1OC (centres unmarked) [GSK1379751] = 0
COC(=O)c1cccc(NC(=O)NC2CCN(c3ccnc(Nc4cc(OC)c(OC)c(OC)c4)n3)C2)c1 (centres unmarked) [GSK1379767] = 7
c1ccc(Oc2ccc(Nc3ccnc4ccc(-c5ccccn5)cc34)cc2)cc1 [GW407034] = 17
Cn1ccc2ncnc(Oc3ccc(NC(=O)Nc4cncc(C(F)(F)F)c4)c(Cl)c3)c21 = 3
CN1CCN(CCCNc2nccc(-c3c(-c4ccc(F)cc4)nn4cc(C(N)=O)ccc34)n2)CC1 [GW622475] = 16

Tell me its %Inh given COC(=O)Nc1nc2cc(Oc3ccc(NC(=O)Nc4cc(C(F)(F)F)ccc4Cl)cc3)ccc2[nH]1.Cl [GW697465] as the entry.
1

Tell me its %Inh given CC(C)c1nc(-c2cccc(NS(=O)(=O)c3ccccc3)c2)c(-c2ccnc(Nc3ccc4c(c3)CN(C)CC4)n2)s1 [GSK1649598] as the entry.
79

###

Documented %Inh across a set of molecules
- System: LYN
- Test context: concentration: 1 μM,replicates: in singlicate; n = 1
Note: unit % is implicit; provide only the numeric part.

# count of solved cases: 2
OCCn1cc(-c2cnc3nnn(Cc4ccc5ncccc5c4)c3n2)cn1 = 0
O=C(Nc1ccc(Oc2ccc3nc(NC(=O)C4CC4)cn3n2)c(F)c1)c1cccn(-c2ccccc2)c1=O = 36

Tell me its %Inh given Cc1n[nH]c2cc(Nc3ccnc(Nc4cccc(CN5CCOCC5)c4)n3)ccc12 as the entry.
25

Tell me its %Inh given CN1CCN(CCNc2nc3cc(Oc4ccc(NC(=O)Nc5cc(C(F)(F)F)ccc5F)cc4)ccc3[nH]2)CC1.Cl.Cl as the entry.
12

Tell me its %Inh given Cn1ccc2ncnc(Oc3ccc(NC(=O)Nc4cncc(C(F)(F)F)c4)c(Cl)c3)c21 as the entry.
32

###

Documented %Inh across a set of compounds
- Tested on: ZAP70
- Test context: concentration: 1 μM,replicates: in singlicate; n = 1

# count of solved cases: 3
Cn1ccc2ncnc(Oc3ccc(NC(=O)Nc4cnn(C(C)(C)C)c4)c(Cl)c3)c21 = 6%
CCOC(=O)N1CCC(n2cnc(-c3ccc(F)cc3)c2-c2ccnc(N)n2)CC1 = 14%
O=C(NCC1CC1)c1ccc(-c2cc(C(=O)NC3CC3)ccc2F)cc1 = 0%

Tell me its %Inh given Cc1ccc(C(=O)Nc2ccc(Oc3ccc4nc(NC(=O)C5CC5)cn4c3)c(F)c2)c(=O)n1-c1ccccc1 as the entry.
0%

###

- Tested on: JAK1(JH1domain-catalytic)
- Test context: concentration: 1 μM,replicates: in singlicate; n = 1
The label is 1 for %Inh below 5% and 0 for %Inh equal to or exceeding 5%.

Solved cases below.
OCCn1cc(-c2cnc3nnn(Cc4ccc5ncccc5c4)c3n2)cn1 = 1
O=C(NOCC1CC1)c1cc(Br)c(F)c(F)c1Nc1ccc(I)cc1Cl = 0
Cn1cc(-c2cccc3c(N)c(C(N)=O)nnc23)cn1 = 0

# strict comparison: is reported %Inh < 5%? input = CCNCC(Cc1ccccc1)NC(=O)c1cc(Br)c(-c2ccnc3[nH]ccc23)s1.Cl.Cl (centres unmarked) [GSK1383280]
0

# strict comparison: is reported %Inh < 5%? input = Cl.Cl.NC[C@H](CC1CCCCC1)NC(=O)c1ccc(-c2ccnc3[nH]ccc23)s1 [GSK1581428]
0

# strict comparison: is reported %Inh < 5%? input = CNC(=O)c1ccccc1Nc1nc(Nc2cccc(CS(C)(=O)=O)c2)ncc1C.O=CO [GSK1520489]
0

# strict comparison: is reported %Inh < 5%? input = CS(=O)c1ccc(-c2coc3ccc(-c4n[nH]c(=O)o4)cc23)cc1 (centres unmarked)
1

# strict comparison: is reported %Inh < 5%? input = O=c1[nH]cc(-c2ccc(O)cc2)c2sc(-c3ccncc3)cc12 [GSK1033723]
0

# strict comparison: is reported %Inh < 5%? input = COc1cc(Nc2nccc(N3CCC(NC(=O)c4cccc(C#N)c4)C3)n2)cc(OC)c1OC (centres unmarked) [GSK1379751]
1

# strict comparison: is reported %Inh < 5%? input = Cn1ccc2ncnc(Oc3ccc(NC(=O)Nc4cnn(C(C)(C)C)c4)c(Cl)c3)c21
0

###

- System: NEK11
- Test context: concentration: 1 μM,replicates: in singlicate; n = 1
Metric: %Inh (%)
Note: unit % is implicit; provide only the numeric part.

# count of solved cases: 3
CN(c1ccccc1CNc1nc(Nc2ccc3c(c2)CC(=O)N3)ncc1C(F)(F)F)S(C)(=O)=O = 0
COc1cc2nccc(Nc3ccc(Oc4ccccc4)cc3)c2cc1OC.Cl [GI261656] = 0
Cc1ccc(C(=O)Nc2ccc(Oc3ccc4nc(NC(=O)C5CC5)cn4c3)c(F)c2)c(=O)n1-c1ccccc1 = 0

Now turn to the next compound.
Tell me its %Inh given Cc1ccc(CC(=O)N2CCc3cc(-c4cn(C)c5ncnc(N)c45)ccc32)cc1 [GSK2634758] as the entry.
59

###

Documented %Inh across a set of compounds
- Tested on: MEK4
- Construct: gene MAP2K4
- Test context: concentration: 1 μM,replicates: in singlicate; n = 1
Note: unit % is implicit; provide only the numeric part.

CN(c1ccccc1CNc1nc(Nc2ccc3c(c2)CC(=O)N3)ncc1C(F)(F)F)S(C)(=O)=O = 84

Tell me its %Inh given COc1ccc(Nc2nccc(N3CCC(NC(=O)c4cccc(C#N)c4)C3)n2)cc1 (stereo not shown) as the entry.
8

Tell me its %Inh given CC(=O)c1c(-c2ccncc2)[nH]c(-c2ccncc2)c1C as the entry.
40

Tell me its %Inh given COc1cccc(CNC(=O)NC2CCN(c3ccnc(Nc4cc(OC)c(OC)c(OC)c4)n3)C2)c1 (stereo not shown) as the entry.
25

###

Documented %Inh across a set of compounds
- Tested on: PKAC-beta
- Construct: gene PRKACB
- Test context: concentration: 1 μM,replicates: in singlicate; n = 1
Note: unit % is implicit; provide only the numeric part.

CC(=O)Nc1nc2cnc(Nc3cc(NC(=O)c4cccc(CC(C)(C)C#N)c4)ccc3C)nc2s1 = 0
COc1cccc(C2=C(Nc3cccc(Cl)c3)C(=O)NC2=O)c1 = 0
C[C@@H](Oc1cc(-n2cnc3ccc(-c4ccncc4)cc32)sc1C(N)=O)c1ccccc1Cl = 5
O=c1[nH]cc(-c2ccc(O)cc2)c2sc(-c3ccncc3)cc12 = 0

Tell me its %Inh given CN1CCN(CCCNc2nccc(-c3c(-c4ccc(F)cc4)nn4cc(C(N)=O)ccc34)n2)CC1 as the entry.
1

Tell me its %Inh given O=C(NCC1CC1)c1ccc(-c2cc(C(=O)NC3CC3)ccc2F)cc1 as the entry.
0

Tell me its %Inh given CN(c1cccc(CNc2nc(Nc3ccc4c(c3)CC(=O)N4)ncc2C(F)(F)F)c1)S(C)(=O)=O as the entry.
0

###

- System: NEK10
- Test context: concentration: 1 μM,replicates: in singlicate; n = 1
The label is yes for %Inh below 10% and no for %Inh equal to or exceeding 10%.

Solved cases below.
C[C@@H](Oc1cc(-n2cnc3cc(-c4ccncc4)ccc32)sc1C(N)=O)c1ccccc1Cl = yes
NC(=O)Nc1sc(-c2ccc(F)cc2)cc1C(N)=O = yes
O=C(Nc1ccccc1)c1cccc(Oc2ccc3nccn3n2)c1 = yes
C[C@@H](Oc1cc(-n2cnc3ccc(-c4ccncc4)cc32)sc1C(N)=O)c1ccccc1Cl = no
CN1CCN(CCNc2nc3cc(Oc4ccc(NC(=O)Nc5cc(C(F)(F)F)ccc5F)cc4)ccc3[nH]2)CC1.Cl.Cl = yes

# strict comparison: is reported %Inh < 10%? input = C[C@@H](Oc1cc(-n2cnc3cc(-c4cnn(C)c4)ccc32)sc1C(N)=O)c1ccccc1Cl
no

# strict comparison: is reported %Inh < 10%? input = COC(=O)Nc1nc2cc(Oc3ccc(NC(=O)Nc4cc(C(F)(F)F)ccc4Cl)cc3)ccc2[nH]1.Cl
no

# strict comparison: is reported %Inh < 10%? input = Cc1ccc(Nc2ccnc(Nc3ccc4c(c3)CS(=O)(=O)C4)n2)cc1O.Cl
no

# strict comparison: is reported %Inh < 10%? input = CC(=O)c1c(-c2ccncc2)[nH]c(-c2ccncc2)c1C
yes

# strict comparison: is reported %Inh < 10%? input = COc1cc2nccc(Nc3ccc(Oc4ccccc4)cc3)c2cc1OC.Cl
no

# strict comparison: is reported %Inh < 10%? input = Cc1ccc2c(-c3ccnc(Nc4ccc(C(F)(F)F)cc4)n3)cnn2n1
no

# strict comparison: is reported %Inh < 10%? input = Cn1cc(-c2cccc3c(N)c(C(N)=O)nnc23)cn1
no

# strict comparison: is reported %Inh < 10%? input = Cn1ccc2ncnc(Oc3ccc(NC(=O)Nc4cccc(C(F)(F)F)c4)c(F)c3)c21
yes

The origin of these recorded values is paper PMC5540273.
